- tested_system: Homeobox protein Hox-A13 (Mus musculus)
- test_method_notes: disruptors of Hoxa13 oligonucleotide interaction – biochemical, fluorescence polarization, labeled oligonucleotide, primary screen (AID 1185)
- test_context: Hoxa13:DNA binding, 15 min, higher = more signal, called active from +8 up or from −8 down
Readings of z-score for the listed molecules
Kindly provide the number alone.

These recorded examples may help you get a feel for the data.
molecule	tested_system	z-score
COCC(=C=CC[C@H](O)c1ccc(CO)o1)CCO	Homeobox protein Hox-A13 (Mus musculus)	-3.75
CC(C)c1ccc(NN2C(C(O)c3ccc(C#N)cc3)C=CC3C(=O)N(c4ccccc4)C(=O)C32)cc1 (stereo not drawn)	Homeobox protein Hox-A13 (Mus musculus)	-2.79

### Prompt Write down z-score measured for item [N-]=[N+]=Nc1ccccc1[C@@H]1OC(c2ccc(OCCCO)cc2)=N[C@]1(Cc1ccccc1)C(=O)O
### Response -4.29

### Prompt Write down z-score measured for item O=C(c1ccccc1)N1C(=O)[C@]2(Cc3ccccc31)N=C(c1ccc(OCCCO)cc1)O[C@@H]2c1ccccc1
### Response -5.04

### Prompt Write down z-score measured for item CC1CC/C=C\[C@H]2OC34C=CCN(c5ccc6ccccc6c5)C(=O)[C@H]3N(CCCO)C(=O)[C@@H]4C2C(=O)O1 (stereo partly drawn)
### Response -5.63

### Prompt Write down z-score measured for item CCCCC=C[C@@H](NC(=O)OCc1ccccc1Cl)c1ccccc1
### Response 2.14

### Prompt Write down z-score measured for item CC(C)C(CO)N1C(=O)[C@@H]2C3C(=O)OCCC/C=C\[C@H]3OC23C=CCN(Cn2nnc4ccccc42)C(=O)[C@@H]13 (stereo partly drawn)
### Response -3.97

### Prompt Write down z-score measured for item CC1=C2[C@@H](CCc3ccccc3)OB(O)C[C@@H]2[C@@H]2C(=O)N(Cc3ccccc3)C(=O)[C@@H]2C1
### Response -7.81

### Prompt Write down z-score measured for item COc1cc2c(cc1O)C=[N+](Cc1sc3ccccc3c1Cl)CC2
### Response -5.22

### Prompt Write down z-score measured for item C=C(COC)/C(=C/C[C@H](OC(=O)c1ccncc1)c1ccc(CO)o1)c1cnc2ccccc2c1
### Response -5.63

### Prompt Write down z-score measured for item C[N+](C)(C)CCCCCCNC(=O)[C@@H]1C[C@@H]2C(=O)N3CCC[C@H]3C(=O)N2[C@@H]1c1ccc(O)cc1
### Response -1.82

---

Readings of z-score for the listed molecules
- test_method_notes: hepatitis C replication reporter changes, two-sided – Huh7 cells, luciferase reporter, HCV replication inhibitor project, primary screen (AID 1109);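 note: huh7 hepatoma cells harbouring a luciferase neomycin HCV replicon reporter; luciferase luminescence as measure of HCV replicon replication; test concentration not given here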
- test_context: Huh7 HCV replicon luciferase reporter, 48 h; higher = more signal
Kindly provide the number alone.

molecule	z-score
[N-]=[N+]=Nc1ccccc1C[C@@]1(C(=O)N2CCOCC2)N=C(c2ccc(OCCCO)cc2)O[C@@H]1c1ccccc1	-1.57
CS(=O)(=O)CCOC(=O)C1=CC(c2ccc(CO)cc2)=CC(C2CC2)N(Cc2sc3ccccc3c2Cl)C=C1C(=O)OCCS(C)(=O)=O (stereo not given)	-1.7
C=CCNC(=O)[C@@H]1[C@H]2C(=O)O[C@H](c3ccccc3)[C@H](c3ccccc3)N2[C@H](c2ccccc2OCCO)[C@@]12C(=O)Nc1ccc(C#CCCO)cc12	-0.364
CCC1=C2CN(Cc3ccccc3)[C@@H](C(=O)Cc3ccccc3)C2C=CCC1 (stereo not given in full)	-0.618

### Prompt Write down z-score measured for item C#CCN([C@@H](Cc1ccccc1)C(=O)OC)[C@@H](/C=C/C1CC1)[C@H](O)Cc1ccccc1
### Response -3.13

### Prompt Write down z-score measured for item [N-]=[N+]=Nc1ccccc1C[C@]1(C(=O)NCC(O)CO)COC(c2ccc(OCCCO)cc2)=N1 (stereo not given in full)
### Response -0.677

### Prompt Write down z-score measured for item COCCOC(=O)N1C(=O)[C@@]2(c3ccccc31)[C@H](c1ccc(O)cc1)N1[C@H](c3ccccc3)[C@H](c3ccccc3)OC(=O)[C@H]1[C@@H]2C(=O)N1CCN(c2ncccn2)CC1
### Response -1.51

### Prompt Write down z-score measured for item N#Cc1ccc(NN2C(C(O)c3ccc(Br)cc3)C=CC3C(=O)N(c4ccccc4)C(=O)C32)cc1 (stereo not given)
### Response -0.431

### Prompt Write down z-score measured for item CC(C)C(CO)N1C(=O)[C@@H]2[C@H]3C(=O)OCC=C[C@H]3OC23C=CCN(c2ccc(Cl)cc2)C(=O)[C@@H]13 (stereo not given in full)
### Response -0.665

### Prompt Write down z-score measured for item CCCC=C(CCC)[C@@H](NP(=O)(c1ccccc1)c1ccccc1)c1ccc(-c2ccccc2)cc1
### Response -2.72

### Prompt Write down z-score measured for item Cc1ccc(NN2C(C(O)c3c(F)cccc3Cl)C=CC3C(=O)N(C4CCCCC4)C(=O)C32)cc1 (stereo not given)
### Response -1.26

### Prompt Write down z-score measured for item C=CCN1C(=O)[C@]2(CCS(=O)(=O)c3ccccc3)N=C(c3ccc(OCCCO)cc3)O[C@@H]2c2ccccc21
### Response -2.68

### Prompt Write down z-score measured for item O=C1O[C@H](c2ccccc2)[C@H](c2ccccc2)N2[C@H]1[C@@H](C(=O)O)[C@]1(C(=O)Nc3ccc(C#CCCO)cc31)[C@H]2c1ccccc1OCCO
### Response -0.488

### Prompt Write down z-score measured for item COC(=O)[C@@]1(Cc2ccccc2)[C@H]2c3cc(C(=O)N4CCCC4)n(CCc4ccccn4)c3C[C@H]2CN1C(=O)c1ccccc1
### Response -1.65

### Prompt Write down z-score measured for item CC#CCO[Si](C#Cc1ccccc1)(C(C)C)C(C)C
### Response 0.046

---

- test_method_notes: optical density change of DRC41 E. coli – strain DRC41, OD650, 24 h, E. coli filamentation project, primary screen (AID 1093);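 note: MC1000 strain lacking acrAB efflux and sulA so SOS filamentation is blocked; test concentration not given here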
- test_context: E. coli DRC41 growth, higher = more signal, called active from +8 up or from −8 down
Readings of z-score for the listed molecules
Kindly provide the number alone.

These recorded examples may help you get a feel for the data.
molecule	observable	val
CCOC(=O)C1=CC[C@@H](c2ccccc2)N(S(=O)(=O)c2ccc(C)cc2)[C@H]1c1ccccc1	z-score	-0.794
C=CCNC(=O)[C@H]1[C@@H]2C(=O)O[C@@H](c3ccccc3)[C@@H](c3ccccc3)N2[C@@H](c2ccccc2OCCO)[C@]12C(=O)N(C(=O)OCCOC)c1ccc(C#CC3(O)CCCCCC3)cc12	z-score	1.31
CS(=O)(=O)CCOC(=O)C1=CC(c2ccc(CO)cc2)=CC(C2CC2)N(Cc2sc3ccccc3c2Cl)C=C1C(=O)OCCS(C)(=O)=O (configuration not stated)	z-score	-3.01
C=CC[C@@]1(C(=O)NCCCOC)N=C(c2ccc(OCCCO)cc2)O[C@@H]1c1ccccc1	z-score	0.734
O=C1N(Cc2ccccc2)c2ccccc2C[C@]12N=C(c1ccc(OCCCO)cc1)O[C@@H]2c1ccccc1	z-score	0.316
C[N+](C)(C)CCCCCCNC(=O)[C@@H]1C[C@@H]2C(=O)N3CCC[C@H]3C(=O)N2[C@@H]1c1ccc(O)cc1	z-score	0.2

Now consider a different molecule.
### Prompt Write down z-score measured for item C=C[C@@H](CO)N(Cc1ccc(OC)cc1)S(=O)(=O)c1ccc(Br)cc1
### Response 2.31

---

- test_method_notes: JC-1 mitochondrial signal, unstimulated adipocytes – cell-based, JC-1 fluorescence, 3T3-L1 adipocytes, 24 h, 100 nL compound, profiling panel (AID 1168); note: test concentration not given here
- test_context: JC-1 mitochondrial fluorescence, higher = more signal, called active from +8 up or from −8 down
Please use Satisfied whenever z-score is not below -0.05, and Not satisfied whenever it is.

The examples below pair each entry with its known result.
compound	group_label
COc1ccc(CCNC(=O)[C@@H]2c3ccccc3C(=O)N(C3CCCCC3)[C@H]2c2ccc(CO)cc2)cc1	Not satisfied
CN1C2C=C(CCCO)C(C3C(=O)N(C(N)=O)C(=O)C32)C1C1CC1 (centres undefined)	Satisfied
COc1ccc(CCNC(=O)[C@@]2(c3ccc([N+](=O)[O-])cc3)CC(=O)N(C3CCCCC3)[C@@H]2c2ccc(CO)cc2)cc1	Not satisfied
CN(C)C(=O)[C@@]1(Cc2ccccc2)N=C(c2ccc(OCCCO)cc2)O[C@H]1c1ccccc1	Satisfied

### Prompt Could you verify whether the entry CCCC[C@@H](O)C1=C(COc2ccccc2)C[C@H]2C(=O)N(Cc3ccccc3)C(=O)[C@H]2[C@H]1CO shows z-score of no less than -0.05?
### Response Satisfied

### Prompt Could you verify whether the entry CCCCCN1CC=CC23O[C@@H]4C=CCCOC(=O)C4[C@H]2C(=O)N(CCCCCCO)[C@@H]3C1=O (some centres undefined) shows z-score of no less than -0.05?
### Response Satisfied

### Prompt Could you verify whether the entry CN(C)C(=O)[C@]1(CCC(=O)OC(C)(C)C)N=C(c2ccc(OCCCO)cc2)O[C@@H]1c1ccccc1CN=[N+]=[N-] shows z-score of no less than -0.05?
### Response Not satisfied

### Prompt Could you verify whether the entry C=CCC(OC(C)=O)[C@@H]1[C@@H](N(Cc2ccc(-c3ccccc3)cc2)C(=O)c2ccc(-c3ccccc3)cc2)c2cc(OCCCO)ccc2N1C(=O)c1ccc2ccccc2c1 (some centres undefined) shows z-score of no less than -0.05?
### Response Not satisfied

### Prompt Could you verify whether the entry COCCOC(=O)N1C(=O)[C@@]2(c3cc(C#CC4=CCCCC4)ccc31)[C@H](C(=O)Nc1nc3ccccc3s1)[C@H]1C(=O)O[C@H](c3ccccc3)[C@H](c3ccccc3)N1[C@@H]2c1ccc(O)cc1 shows z-score of no less than -0.05?
### Response Not satisfied

### Prompt Could you verify whether the entry O=C1C[C@]2(c3ccc([N+](=O)[O-])cc3)C(=O)N(C3CC3)c3cc(CO)ccc3[C@H]2N1CC12CC3CC(CC(C3)C1)C2 shows z-score of no less than -0.05?
### Response Not satisfied

### Prompt Could you verify whether the entry COc1cccc(C)c1NC(=O)O[C@H]1[C@H](OC(=O)Nc2ccc3c(c2)OCO3)[C@@H](OC(=O)Nc2ccc3c(c2)OCO3)[C@@H](OC)O[C@@H]1CO shows z-score of no less than -0.05?
### Response Satisfied
